Assay: reversal of MRP1-mediated doxorubicin resistance, pilot screen, H69AR cells, doxorubicin co-treatment (AID 601)
Details: H69AR cells + 2 uM doxorubicin, CellTiter-Glo, 72 h; measured here: viability with 2 uM doxorubicin; at 10 µM; stronger effect = lower value
Readings of viability for the listed molecules

{"columns": ["molecule", "viability (%)"],
 "data": [
  ["COc1ccc2ccccc2c1CN1CCCC(CO)C1 (stereo unspecified)", 80.5],
  ["O=C(c1cccs1)N(Cc1ccco1)Cc1cc2ccccc2[nH]c1=O", 88.7],
  ["Cc1ccc(-c2ccc(SCC(=O)Nc3nonc3C)nn2)cc1", 93.5],
  ["Cn1cc(C(=O)NC2CCCCCCC2)c(=O)c2cc(S(=O)(=O)N3CCCC3)ccc21", 90.6],
  ["N#CC1=C(N)C(C#N)(C#N)[C@H](c2ccsc2)[C@H]2COCC=C12", 95.1],
  ["Cc1nc2ccccn2c(=O)c1CCN1CCC(C(=O)c2ccc(F)cc2)CC1", 101],
  ["CCCCn1nnnc1NCc1cccs1", 84.8],
  ["Cc1ccc(Nc2cc(C)nc3nnnn23)cc1", 85.1],
  ["O=C(Cc1c[nH]c2ccccc12)N1CCc2ccccc21", 67.5],
  ["CCc1nnc(NC(=O)CSc2nnc3ncccn23)s1", 98.7],
  ["O=C(CN1CCN(Cc2ccc3c(c2)OCO3)CC1)N1CCc2[nH]c3ccc(F)cc3c2C1", 61.4],
  ["CNCCC(Oc1ccc(C(F)(F)F)cc1)c1ccccc1 (stereo unspecified)", 65.2],
  ["C=C1[C@@H](C)C2[C@H](Cc3ccccc3)NC(=O)[C@]23OC(=O)CC[C@H](O)CCC[C@H](C)C/C=C/[C@H]3[C@@H]1O (stereo partly specified)", 48.2],
  ["N[C@@H](C(=O)N[C@@H]1C(=O)N2C(C(=O)O)=C(Cl)CS[C@H]12)c1ccccc1", 103],
  ["O=C(NCCN1CCOCC1)C1CCC(=O)N1Cc1ccccc1Cl (stereo unspecified)", 86.3],
  ["C=CCn1cnc2c(c1=O)c1nc3ccccc3nc1n2-c1ccc(C)cc1", 93.7],
  ["Cc1ccc2cc(CN(CC(C)C)C(=O)C3CCCO3)c(=O)[nH]c2c1 (stereo unspecified)", 96.8],
  ["C/C(=N\\O)c1ccc2c3c([nH]c2c1)CCCC3", 96.8],
  ["Cc1cc(C(=O)CSCCCn2c(=O)[nH]c3ccccc32)c(C)n1C", 88.7],
  ["C/C=C(\\C)c1nnc(NC(=O)OCC)s1", 89.4],
  ["c1ccc2c(c1)CCCC2C1=NCCN1 (stereo unspecified)", 88.6],
  ["CCOc1cc(C2Nc3ccccc3C(=O)N2c2ccccc2OC)ccc1O (stereo unspecified)", 94.9],
  ["COc1ccc2c(c1)c(CC(=O)O)c(C)n2C(=O)c1ccc(Cl)cc1", 92.3],
  ["Cc1[nH]nc2c1C1(C(=O)N(Cc3ccc(Cl)cc3)c3ccccc31)C(C#N)=C(N)O2 (stereo unspecified)", 92],
  ["O=c1c2ccccc2c(/C=N/n2cnnc2)c(O)n1-c1ccccc1", 83.9],
  ["COc1ccccc1NC(=O)NCc1ccc2c(c1)OCO2", 94.4],
  ["COc1ccc(C(=O)NCCc2nnc(SCc3nc4ccccc4c(=O)[nH]3)n2C)cc1", 73.8],
  ["O=C(Nc1ccccc1C(=O)N1CCOCC1)C1COc2ccccc2O1 (stereo unspecified)", 96.6],
  ["CN(CCc1ccccn1)c1ncnc2[nH]ncc12", 87.6],
  ["CC(C)CCn1c(SCC#N)nc2c(sc3ccccc32)c1=O", 53.6],
  ["COc1cccc(OC)c1C(=O)N1CCOCC1", 85.1],
  ["CCN(CC)C(=O)CSc1nnc(-c2cc(OC)cc(OC)c2)o1", 91.9],
  ["O=C1CCC(c2ccccc2)N1C(=O)c1cccnc1 (stereo unspecified)", 90.2],
  ["CN(C)/C=C1\\N=C(c2ccc(Cl)cc2Cl)OC1=O", 76.3],
  ["CCOc1ccc(NC(=O)CSc2nc3cccnc3n2CC)cc1", 82.2],
  ["CCN(CC(=O)Nc1ccc2c(c1)CCC2)Cc1nc2ccccc2c(=O)[nH]1", 85.2],
  ["CCN(CCO)C(=O)CC(c1ccccc1)c1cc(Br)ccc1O (stereo unspecified)", 97],
  ["N#CCc1nc2c3c4c(sc3ncn2n1)CCCC4", 78.1],
  ["Cc1ccccc1C(=O)N1CCC(C(=O)Nc2ccc(S(=O)(=O)N3CCCC3)cc2)CC1", 82.7],
  ["O=C(CSCc1n[nH]c(=O)[nH]1)NCCOc1cccc(Oc2ccccc2)c1", 100],
  ["CCc1c(C(=O)NCCc2ccc(OC)c(OC)c2)[nH]c(C)c1C(C)=O", 82.1],
  ["CC(=O)Nc1ccn(-c2ccccc2)n1", 97.6],
  ["Cc1ccccc1-c1nc(CS(=O)(=O)CC(=O)NCc2ccccc2)c(C)o1", 90.4],
  ["O=C1NC(c2cccnc2)C(C(=O)c2cccs2)C(O)(C(F)(F)F)N1 (stereo unspecified)", 97.7],
  ["CCCCn1c(SCc2ccc(Cl)cc2)nc2c1c(=O)[nH]c(=O)n2C", 70.7],
  ["CN1CCN(c2ncnc3c2cnn3-c2ccc(Cl)cc2)CC1", 88.3]
]}
